Target: T1, recombinant human EGFR/Fc chimera (receptor extracellular domain/Fc chimera) (human, UniProt P00533 25-645)
T1 construct: extracellular domain; Bought from R&D Systems; Captured on plates coated with anti-Fc antibody; also called HER/Fc chimera-EGFR; HER1; not shown: Fc part (and any linker) of the purchased R&D Systems chimera
Assay: sandwich ELISA; receptor ECD/Fc chimera captured on anti-Fc plates, biotin-labeled ligand titrated, streptavidin-HRP detection
Measured property: Kd (nM)
Numeric only. Scale: nM

query: Kd for NSDSECPLSHDGYCLNDGVCMYTEAKDEYACNCVVGYIGERCQYYDLL (ligand, not fully specified; biotin label; paragraph 113 says derivatized at the N-terminus; paragraph 97 says B5-3M2 has two sites for biotinylation, the N terminus and K26, Made in E. coli; also called tagged (biotinylated) DNL; EGF1-48 H16N, I23T, L26K, K28E, R45Y, K48L) [Pan-HER DNL B5-3M2 tagged with biotin] ?
result: 5
